// provenance: the nanobody polyreactivity screen of Harvey et al. (2022)

Test: yeast display, Sf9 membrane polyspecificity reagent, FACS + sequencing; frameworks hold sequencing errors
quantity: polyreactivity (PSR sort gate)

1. QVQLVESGGGLVQAGGSLRLSCAASGRTFTPYAMGWYRQAPGKERELVAAINSDGSTNYADSVKGRFTISRDNAKNTVYLHMNSLKPEDTAVYYCAAGYSLEGDYWGQGTQVTVSS; low polyreactivity
2. QVQLVESGGGLVQAGGSLRLSCAASGYIFPFNAMGWYRQAPGKERELVAAITNGGRTYYADSVKGRFTISRDNAKNTVYLQMNSLKPEDTAVYYCAAGSKSDMDWGQGTQVTVSS; low polyreactivity
3. QVQIVESGGGLVQAGGSLRLSCAASGRTLRYYSMGWYRQAPGKERELVAAISGSGGRTYYADSVKGRFTISRDNAKNTVYLQMNSLKPVDTAVYYCAKRYYRTAGDMDYWGLGTQVTVSS; high polyreactivity
4. QGQLVESGGGLVQAGGSLRLSCAASGRTFYRYAMGWYRQAPGQERELVASITRGTSTNYADSVKGRFTISRDNAKNTVYLQMNSLKPEDTAVYYCAAGASGLFWDYDYWGQGTQVTVSS; high polyreactivity

====

Assay: yeast display, Sf9 membrane polyspecificity reagent, FACS + sequencing; frameworks hold sequencing errors
quantity: polyreactivity (PSR sort gate)

1. QVQLVESGGGLVQAGGSLRISCAASGRTFLVYTMGWYRQAPGKERELVAAISWSDGSTYYADSVKGRFTISRDNAKNTVYLQMNSLKPEDTAVYYCAARRTGYLYRYGYWGQGTQVTVSS; low polyreactivity
2. QEQLLESGGALVQAGGSLRLSCMASGSILGDRMSWYRQAPGKEHELVATIYDGGITYYADSMKGRFTISRDNAKNTVYLQMNSLRPEDTAVYYCGASFEGYRYHVYCGQGTQVTVSS; low polyreactivity

====

Assay: yeast display, Sf9 membrane polyspecificity reagent, FACS + sequencing; frameworks hold sequencing errors
quantity: polyreactivity (PSR sort gate)

Check out these entries, answers already filled in.
1. QVQLVESGGGLVQAGGSLRLSCPASGSSSVYNAMGWYRQAPGKERELVAAISWSGGRTSYADSVKGRFTISRDIAKNTVYLQMNSLKPEDTAVYFCAAHTVYSPPRVAGPGYDYWGQGTQVTVSS; low polyreactivity
2. QVQLVESGGGLVQAGGSLRLSCAASGITFEPYDMGWYRQAPGKERELVAAISTTGGRTYYADSVKGRFTISRDNAKNTVYLQMNSLKPEDTAVYYCAARYTTRRRYDYWGQGTQVTVSS; high polyreactivity
3. QVQLVESGGGLVQAGGSLRLSCAASGFILYFNAMGWYSQAPGKERELVAAITSDGGSTYYADSVKGRFTISRDNAKNTVYLQMNSLKPEDTAVYYCAADASTWYTEEYWGQGTQVTVSS; low polyreactivity
4. QVQLVESGGGLVQAGGSLRLSCAASGFTVHDYAMGWYRQAPGKERELVAAISFSGGRTYYADSVKGRFSISRDNAKNTVYLQMNSLKPEDTAVYYCNAKGQRIKRWRGYWGQGTQVTVSS; high polyreactivity
5. QVQLIESGGGLVQAGGSLRLSCAASGRIFYYNAMGWYRQAPGKERELVAVITRSGGSTYYADSVKGRFTISRDTAKNTVYLQMNSLKQEDTAVYYCAKTWKGGYGYDYWGQGTQVTVSS; low polyreactivity
6. QVQLVESGGGLVQAGGSLRLSCAASGSTFNSYVMGWYRQAPGKERELVAAITSSGSTYYADSVKGRFTISRDNAKNTVYLQMNSLKPEDTAVYYCNAQDAWEWQGVWVGARDDYDYWGQGTQVTVSS; low polyreactivity
7. QVQLVESGGGLVQAGGSLLLSCAASGFNFTYYTMGWYRQAPGKERELVAAISYSGGSTYYAESVKGRFTISRDNAKNSVYLQMNSLKPEDTAVYYCAVRVSDKYISKRFEYWGQGTEVTVSS; high polyreactivity
8. QVQLVESGGGLVQAGGSLRLSCAASGLTFRVNDMGWYRQAPGKERELVATISSGGSTYYADSVKGRFTISRDNAKNTVYLQMNSLKPEDTAVYYCATNSEGQESNSYYVWMGYWGQGTHVTVSS; low polyreactivity

Ask | Give the measured polyreactivity (PSR sort gate) for `QLQLVESGGGLVQAGGSLRLSCAASGSTFTWKAMGWYRQAPGKERELVAAITSGCRTYYADSVKGRFTISRDNAKNTVYIEMNSLKPEDTAVYYCAAKVRHYYSASNYYYWGQGTQVTVSS`
Reply | high polyreactivity

Ask | Give the measured polyreactivity (PSR sort gate) for `QVQLVESGGGLVQAGGSIRLSCAASGIIFYYYAMGWYRQAPGKERELVAGISYSGGSTYADSVKGRFTISRDNAKNTVYLQMNSLKPEDTAVYYCAADYDYGGHWYDYWGQGTQVTVSS`
Reply | low polyreactivity

Ask | Give the measured polyreactivity (PSR sort gate) for `QVQLVESAGGLVQAGCSLRLSCAASGSPFGYYAMGWYRQAPGKVRELVAAISRSGVSTYYADSVKGRFTISRDNAKNTFYLQMNSLKPEDTAVYYCDRVRSTPGSYNRFYYWGQGTQVTVSS`
Reply | high polyreactivity

Ask | Give the measured polyreactivity (PSR sort gate) for `QVQLVQSGGGLVQAGGSLRLSCAASGITFEYNTMGWYRQAPGKERELVAAITQGGGTTNYADSVKGRFTISRDNAKNTVYLQMNSLKPEDTAVYYCAAFVGYLLLYYPTYYYWGQGTEVTVSS`
Reply | low polyreactivity

====

Test: yeast display, Sf9 membrane polyspecificity reagent, FACS + sequencing; frameworks hold sequencing errors
quantity: polyreactivity (PSR sort gate)

Check out these entries, answers already filled in.
1) QVLLVESGGGLVQAGGSLRLSCAASGRTFYWYAMGWYRQAPGKERELVAGISSGGGTYYADSVKGRFTISRDNAKNTVYLQMNSLKPEDTAVYYCAAASENIWVWQEYIEYDYWGQGTQVTVSS; low polyreactivity
2) QVQIVESGGGLVQAGGSLRLSCAASGSTFARNAMGWYRQAPGKEREFVASIRWGGVSTYYADSVKGRFTISRDNAKNTVYLQMNSLKPEDTAVYYCATGRKNAAQRWGYYYWGQGTQVTVSS; high polyreactivity
3) QVQLVESGGGLVQAGGILRISCAASGFIFDLYAMGWYRQAPGKERELVAAISGSGGSTYYADSVKGRFTISRDNAKNTVYLQMNSLKPEDTAVYYCAARRFGTNYDYWGQGTQVTVSS; high polyreactivity
4) QVQLVESGGGLVQAGGSLRLSCAASGSTFYHYTMGWYRQAPGKERELVARISRSGGSTYYADSVKGRFTISRDNAKNTVYLQMNSLKPEDTAGYYCNKGSFYGSSQVGGTGYDYWGQGTQVTVSS; low polyreactivity
5) QVQLVESGGRLVQAGGSLRLSCAASGRTFSNAIGWDRQAPGKEREEVADISSGGSTNYADSVKGRFTISRDNAKNTVYLQMNSLKPEDTAVYYCAAVSGSLYGYSDDYWGQGTQVTVSS; low polyreactivity

Ask | Give the measured polyreactivity (PSR sort gate) for `QVQLVESGGGLVQAGGSLRLSCAASGSTFGSNAMGWYREAPGKERELVAAIDANGGSTYYADSVKGRFTISRDNAKNTVYLQMNSLKPEDTAVYYCAAAGYWYYYVPNDYWGQGTQVTVSS`
Reply | low polyreactivity

Ask | Give the measured polyreactivity (PSR sort gate) for `QLQLVESGGGLVQAGGSLRISCAASGSTFFLNAMGWYRQAPGKERELVAAITSGSGNTYYADSVKGRFTISRDNAKNTVYLQMNSLKPADSAVYYCNVTRFVYRPYGLDRDDYWGQGTQGTVSS`
Reply | low polyreactivity

Ask | Give the measured polyreactivity (PSR sort gate) for `QVQLVESGGGLVHAGGSLRLSCAASGSTFKGYAMGWYRQAPGKERELVASIRSSSGSTYYADSVKGRFTISRDNAKNTVYLQMNSLKPEDTAVYYCATALWVRYYGQGGYIRRYDYWGQGTHVTVSS`
Reply | high polyreactivity

Ask | Give the measured polyreactivity (PSR sort gate) for `QVQLVESGGGLVQAGGSLRLSCAASGSIFYSYVMGWYRQAPGKERELVAAITTGGSTYYADSVKGRFTISRDNAKNTVYLQMNSLKPEDTAVYYCAAELVGTEYDYWGQGTQVTVSS`
Reply | low polyreactivity

Ask | Give the measured polyreactivity (PSR sort gate) for `QVQLVESGGGLVQAGGSLRLSCAASGGTFGSNTMGWYRQAPGKERELVAAITSGVSTNYADSVKGRFTISRDNAKNTVYLQMNSLKPEDTAVYYCAKDLWSEEYETIITSYGFDYWGQGTQVTVSS`
Reply | low polyreactivity

Ask | Give the measured polyreactivity (PSR sort gate) for `QVQLGESGGGLVQSGGSLRLSCAASGYIFNHNAMGWYRQAPGKEWELVAGISIGGSTYYADSVKGRFTISRDNAKNTVYLQMNRLIPEDTAVYYCNTQPPLIYRGVKSDYSGQGTQVTVSS`
Reply | low polyreactivity

Ask | Give the measured polyreactivity (PSR sort gate) for `QVQLVESGGGLVQAGGSLRLSCAASGGTFRYYAMGWYRQAPGKERELVATINWSGGSTYADSVKGRFTISRDNAKNTVYLQMNSLKPEDTAVYYCNAGWWIPVYYWDEWYIYNYWGQGTQVTVSS`
Reply | high polyreactivity

Ask | Give the measured polyreactivity (PSR sort gate) for `QVQLQESGGGLVQAGGSLRLSCAASGYISYFVGMGWYRQAPGKEREFVASIADGSYTYYADSVKGRFTISRDNAKNTVYLQRNSLKPEDTAVYYCAVEDSWTYRFDYWGQGTQVTVSS`
Reply | high polyreactivity
